Each recorded value in this set is attributed to PubChem BioAssay AID1996.

Details: buffer; pH 7.4; 200.0 µM
Would you mind telling me the reported log10 solubility kinetic of each entry?
Hi team, quick reminder: these entries are log10 of solubility kinetic (µg/mL).

Reported log10 solubility kinetic, compound O=c1[nH]c(-c2ccccc2)nc(-c2ccccc2)c1Cl : ____
0.38

For Cl.Nc1cc(Cl)ccc1N1CCCCCC1 , what is its reported log10 solubility kinetic?
1.09

What value of measured log10 solubility kinetic is listed for COc1ccccc1NS(=O)(=O)c1cc(C(=O)N2CCCCCC2)ccc1C ?
0.98

Quick one: log10 solubility kinetic of CSc1ccc(Cl)c(C(=O)Nc2nccs2)c1 ?
0.45

Any idea what its log10 solubility kinetic is? The compound is CCCc1cc(C(=O)Nc2ccc(CC)cc2)no1
0.15

What log10 solubility kinetic value was documented for this compound, C=CCn1cc(C(=O)OCC)c(=O)c2ccc(F)cc21 ?
1.60

Dear colleague, I am looking for the recorded log10 solubility kinetic of the following compound: Cc1ccc2c(c1)sc(=NC(=O)C1CC1)n2C
1.19

Item under review: CC(=O)c1cccc(NC(=S)NC2CCCCCCC2)c1 . Reported log10 solubility kinetic?
0.78

Please give the measured log10 solubility kinetic for this compound: COc1ccc(/C=C/C(=O)OCC(=O)NC2CCCCCC2)cc1OC
0.85

Can you share its log10 solubility kinetic? I mean this compound: Cc1ccc(-c2nc(-c3ccncc3)no2)cc1C
-0.15

What value of log10 solubility kinetic has been recorded for this entry: Cc1ccc(NC(=O)C(=O)NCCc2c[nH]c3ccccc23)c(C)c1
-0.40

Any idea what log10 solubility kinetic was measured for COc1ccc(NC(=O)C2CC3CCC2C3)c(OC)c1 (stereo not given) ?
1.50

Given the compound COc1nc(NC2CCCCC2)nc(NC(C)(C)C)n1 , what is its reported log10 solubility kinetic?
1.32

Query: log10 solubility kinetic; subject: COc1ccccc1OCCNC(=O)Nc1cc(F)c(F)cc1Cl
-0.15

====

Field: log10(solubility kinetic). Provide a value for each of the molecules that follow.
Conditions: buffer; pH 7.4; 200.0 µM
Hello, just confirming the data are log10 of solubility kinetic with units of µg/mL.

Please look up its log10(solubility kinetic): COc1ccc(C(=O)OCC(=O)NC2CCCCCCC2)cc1OC
1.46

Which log10(solubility kinetic) value belongs to CCOc1ccc(Cc2onc3c2C(=O)CC(C)(C)C3)cc1OCC ?
1.51

Query: log10(solubility kinetic); subject: CC(OC(=O)c1ccc(C#N)cc1)C(=O)Nc1ccc(Cl)cn1 (configuration not stated)
0.73

What does the record list as log10(solubility kinetic) for Cc1ccc(C)c(C(=O)CCC(=O)NCc2ccc(Cl)cc2)c1 ?
1.04

Record request: log10(solubility kinetic) value, item Cc1sc2nc(C(C)C)nc(SCC(=O)NC3CC3)c2c1C
0.18

====

Conditions: buffer; pH 7.4; 200.0 µM
Cut-off 20 µg/mL on solubility kinetic, inclusive. At or above means TRUE; below means FALSE.

Hi team, for CC(=O)NC(=S)Nc1cccc2ccc(C)nc12 , is the recorded solubility kinetic at or above 20 µg/mL?
FALSE

solubility kinetic >= 20 µg/mL for Cc1ccc(S(=O)(=O)Cc2ccc([N+](=O)[O-])cc2)cc1 ?
FALSE

Is the recorded value of solubility kinetic equal to or greater than 20 µg/mL for this molecule? CC1CCC(C(C)C)C(OCC(O)CN2CCCC(C)C2)C1.Cl (stereo unspecified)
TRUE

Could you tell me if the measured solubility kinetic of CC(CC(=O)O)C(=O)c1ccc(Cl)c([N+](=O)[O-])c1 (stereo unspecified) reaches 20 µg/mL or more?
TRUE

Hello, I need to know if O=C1NC2(CCCCCC2)C(=O)N1Cc1ccccc1Br has measured solubility kinetic not below 20 µg/mL. Thanks!
FALSE

Decide: solubility kinetic of COc1ccc(S(=O)(=O)N2CCN(CC(=O)NC(Cc3ccccc3)C(C)=O)CC2)cc1 (stereo unspecified) >= 20 µg/mL?
TRUE

Determine whether this molecule has solubility kinetic no lower than 20 µg/mL: O=C(OCC(=O)N1CCN(C(=O)c2ccco2)CC1)c1cc(F)c(F)cc1Cl
TRUE

Assess whether reported solubility kinetic for CSc1ccccc1NC(=O)COc1ccccc1C sits at 20 µg/mL or higher.
FALSE

Can O=C(Nc1ccc(Cl)c(Cl)c1)Nc1ccon1 be said to have solubility kinetic at or above 20 µg/mL?
FALSE

Determine whether measured solubility kinetic meets or exceeds 20 µg/mL for CC(NC(=O)/C(=C\c1ccco1)NC(=O)c1ccco1)C(=O)O (stereo unspecified)
TRUE

====

For each record, write down the corresponding log10 of solubility kinetic.
Conditions: buffer; pH 7.4; 200.0 µM
In plain terms, each number is the log10 of measured solubility kinetic in µg/mL.

Bench note: what log10 of solubility kinetic did N#CC1(C#N)C(C(=O)C23CC4CC(CC(C4)C2)C3)C12CCOCC2 (stereo not drawn) show?
0.52

May I ask what log10 of solubility kinetic has been recorded for N#Cc1c(-c2ccc(Cl)cc2)cc(-c2cccs2)nc1SCC(=O)O ?
1.12

Would you kindly share the measured log10 of solubility kinetic for CCOc1ccc2nc(NC(=O)CN3CCN(CC)CC3)sc2c1 ?
1.68

Consider the molecule shown here: CCC1(C)Cc2ccccc2-c2[nH]c(=S)[nH]c(=O)c21 (stereo not drawn) What is its recorded log10 of solubility kinetic?
1.34

If you can, please state the reported log10 of solubility kinetic value of COc1ccc(OCCC(=O)OCC(=O)NC2CCCCC2)cc1 .
1.57

Requested field: log10 of solubility kinetic. Item: CCCCC(=O)Nc1ccc(C2C(=O)c3ccccc3C2=O)cc1
1.64

Tell me the measured log10 of solubility kinetic of CCn1cc(C(=O)NCc2ccccc2F)c(=O)c2ccc(C)nc21 , please.
0.46

What does the record list as log10 of solubility kinetic for Cc1ccc(-c2nc(Nc3ccc(O)cc3)c3ccccc3n2)cc1 ?
-0.05

What measured log10 of solubility kinetic goes with O=C(NCc1ccccc1)c1cc2ccc(O)cc2oc1=O ?
0.80

Bench note: what log10 of solubility kinetic did COc1ccccc1-c1noc(CCCC(=O)NC2CCCCC2)n1 show?
1.69

Returns the measured log10 of solubility kinetic for the input molecule. Input: CC(C)CNC(=O)N1c2ccccc2Sc2ccccc21
0.85

Please give the measured log10 of solubility kinetic for this molecule: Clc1ccc(N2CCN(c3ccnc(Cl)n3)CC2)cc1
0.36

Can you look up the measured log10 of solubility kinetic of CN(C)c1cc[n+](CC(=O)c2ccc(Br)cc2)cc1.[Cl-] for me?
1.72

====

Conditions: buffer; pH 7.4; 200.0 µM
Please go through the items and note down their solubility kinetic.
Numbers only here, please. The scale is µg/mL.

Fill in the blank: the reported solubility kinetic of COc1ccc(S(=O)(=O)N2CCOCC2)cc1NC(=O)COc1ccc2c(C)cc(=O)oc2c1 is ____.
4.1

Fill blank: measured solubility kinetic of the molecule CCOC(=O)Nc1ccc(N2CCOCC2)c(S(=O)(=O)Nc2ccc(Cl)cc2)c1 is ____.
7.8

Form field: reported solubility kinetic of Cc1ccccc1-c1nc(-c2ccc(Br)o2)no1
1

Dear colleague, I am looking for the recorded solubility kinetic of the following molecule: O=C(NCCc1ccc(Cl)cc1)C12CC3CC(CC(O)(C3)C1)C2
46.9

Any idea what solubility kinetic was measured for Cc1ccccc1C(=O)Nc1ccc(CN2CCOCC2)cc1 ?
45.9

Name the recorded solubility kinetic for O=C(Oc1ccccc1)N1CCCC1 .
24.8

Would you kindly share the measured solubility kinetic for CCOc1ccc(NC(=O)CCc2ccc(C)o2)cc1 ?
10.5

Field request: solubility kinetic | item: Cn1ccnc1Sc1ccc(C(N)=O)cc1[N+](=O)[O-]
38.7

Need solubility kinetic, item O=C(NCCCCc1ccccc1)c1cc([N+](=O)[O-])cc([N+](=O)[O-])c1
9.9

Param item = CCN(CC)P(=O)(Oc1ccccc1)Oc1ccccc1 ; retrieve measured solubility kinetic.
34.2

Look at this molecule and give its reported solubility kinetic. FC(F)(F)c1cccc(Cc2noc(CN3C[C@@H]4CCC[C@H]3C4)n2)c1
28.4

Need solubility kinetic of Cc1ccc(C(=O)OCC(=O)Nc2cc(C(C)(C)C)no2)c(C)c1 , thanks.
3.1

====

For each of the molecules below, state its solubility kinetic.
Conditions: buffer; pH 7.4; 200.0 µM
Unit µg/mL implied. Number only.

Quick check: solubility kinetic of CCOC(=O)N1CCc2[nH]c3ccc(C)cc3c2C1 ?
15.9

Requested field: solubility kinetic. Item: CC1CCCN(C(=O)COC(=O)Cc2ccc(Cl)cc2)C1 (centres undefined)
29.8

Any idea what solubility kinetic was measured for CSc1cccc(N=C2C(=O)Nc3ccccc32)c1 ?
33

Find the recorded solubility kinetic belonging to O=C(Cc1ccc(Cl)cc1)Nc1cccnc1 and report it.
23.3

Suppose we examine the molecule CC1=C(C(=O)OCCOC(C)C)C(c2cccc3ccccc23)NC(=O)N1 (centres undefined) ; what solubility kinetic value has been reported?
4.6

Field request: solubility kinetic | item: Cc1ccc(S(=O)(=O)N2CCOCC2)cc1NC(=O)CN1C(=O)NC(C)(c2ccc(Cl)cc2Cl)C1=O (centres undefined)
46.1

Field request: solubility kinetic | item: CCc1ccc2oc(C(=O)Nc3cccnc3)c(C)c2c1
1

Give the measured solubility kinetic of O=C(CSc1nccc(-c2cccs2)n1)Nc1ccccc1 .
2.3

// query solubility kinetic value for entry CCOc1ccc(NC(=O)COC(=O)Cn2cnc3ccccc32)cc1
19.9

# get_value(readout='solubility kinetic', item= Cc1c(C)c(C)c(CO/N=C/c2cccs2)c(C)c1C )
1.3

Endpoint output: solubility kinetic of Fc1ccccc1N1CCN(CC2CCCCC2)CC1 . Value?
6.2

Consider the molecule CC(=O)c1ccc(Nc2ccc([N+](=O)[O-])c3nonc23)cc1 and give its measured solubility kinetic.
4.2

Find the recorded solubility kinetic belonging to CCCC(C)NC(=O)COC(=O)c1cccc(NS(C)(=O)=O)c1 (centres undefined) and report it.
50.7

Can you share its solubility kinetic? I mean this molecule: COc1ccc(/C=C/C(=O)OCC(=O)NC2CCCCCCC2)cc1
7.6

If you can, please state the reported solubility kinetic value of O=C(CNC(=O)c1ccc(Br)o1)Nc1ccccc1 .
6.7

// query solubility kinetic value for entry CCn1cc(CCCC(=O)NCc2ccc(OC)cc2)c2ccccc21
10.5

Give its solubility kinetic value. Item: Cc1cc(=O)n(CC(=O)Nc2cc(Cl)ccc2C)c(C(C)C)n1
40.4

Recorded solubility kinetic of CC(C)N1CCN(Cc2cccc3nonc23)CC1CCO (centres undefined) , please.
42.2

So what does the record say about solubility kinetic for Cc1ccc(CN(Cc2ccccc2)C(=S)Nc2ccccc2C)o1 ?
1.5

Given the molecule Cc1ccc(NC(=O)c2cnccn2)c(C)c1 , what is its reported solubility kinetic?
32.7

Any idea what solubility kinetic was measured for O=C(COc1ccccc1)Nc1ccc(C(=O)N2CCCC2)cc1 ?
34.1

Using the record for Cc1sc2nc(SCC(=O)Nc3cccc(S(N)(=O)=O)c3)[nH]c(=O)c2c1C , report its solubility kinetic.
6

Give the measured solubility kinetic of COc1cccc(OC)c1C(=O)Nc1ccncc1 .
19

Bench note: what solubility kinetic did Cc1ccnc(NCc2ccc(Cl)cc2)c1 show?
3.7

Look at this molecule and give its reported solubility kinetic. NC(=O)CCN1CCN(S(=O)(=O)/C=C/c2ccccc2)CC1
42.4

Consider the molecule NS(=O)(=O)c1ccc(CNC(=O)c2cccnc2Cl)cc1 and give its measured solubility kinetic.
38.3

Request the reported solubility kinetic associated with O=C(Nc1ccccc1N1CCOCC1)c1ccc([N+](=O)[O-])s1
4.6

# lookup: solubility kinetic of COc1cc(/C=C2\SC(N)=NC2=O)cc(Cl)c1O
9.6

solubility kinetic lookup needed for O=c1oc2ccccc2c(NCc2ccc(Cl)cc2)c1[N+](=O)[O-] , thanks.
1.4

Which measured solubility kinetic value corresponds to COC(=O)c1ccc(/C=C/C(=O)OCC(=O)NCc2cccs2)cc1 ?
27.4
